- Target or system: human CDK7/cycH/MAT1 (Homo sapiens (Human), UniProt P50613)
- Sequence (P50613 whole entry): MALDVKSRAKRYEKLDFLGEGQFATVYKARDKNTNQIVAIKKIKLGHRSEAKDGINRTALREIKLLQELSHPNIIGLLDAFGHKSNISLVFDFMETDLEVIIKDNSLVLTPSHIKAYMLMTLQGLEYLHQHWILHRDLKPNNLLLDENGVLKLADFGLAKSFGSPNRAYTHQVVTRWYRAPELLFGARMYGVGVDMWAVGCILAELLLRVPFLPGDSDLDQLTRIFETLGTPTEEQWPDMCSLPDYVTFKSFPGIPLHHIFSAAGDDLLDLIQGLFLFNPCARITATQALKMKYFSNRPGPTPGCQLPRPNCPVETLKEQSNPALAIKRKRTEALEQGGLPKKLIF
- Sequence (P51946 whole entry partner): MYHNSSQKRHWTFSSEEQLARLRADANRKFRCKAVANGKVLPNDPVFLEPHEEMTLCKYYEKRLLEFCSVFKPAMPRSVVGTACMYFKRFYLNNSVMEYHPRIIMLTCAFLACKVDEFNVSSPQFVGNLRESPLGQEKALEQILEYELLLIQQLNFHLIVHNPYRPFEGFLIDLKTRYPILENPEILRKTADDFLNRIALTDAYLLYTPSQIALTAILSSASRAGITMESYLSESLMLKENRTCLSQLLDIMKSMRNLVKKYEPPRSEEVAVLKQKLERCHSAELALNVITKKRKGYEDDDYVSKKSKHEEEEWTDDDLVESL
- Sequence (P51948 whole entry partner): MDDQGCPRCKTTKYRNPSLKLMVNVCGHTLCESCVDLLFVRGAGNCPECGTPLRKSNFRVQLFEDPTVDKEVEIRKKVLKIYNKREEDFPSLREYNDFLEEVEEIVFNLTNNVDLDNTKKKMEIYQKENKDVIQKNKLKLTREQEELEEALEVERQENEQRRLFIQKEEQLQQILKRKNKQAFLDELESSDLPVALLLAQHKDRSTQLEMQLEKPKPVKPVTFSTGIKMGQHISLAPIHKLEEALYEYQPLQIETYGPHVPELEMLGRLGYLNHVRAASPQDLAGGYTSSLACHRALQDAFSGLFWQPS
- Assay notes: CDK7 IC50 (ADP-Glo kinase assay)
- Assay type: biochemical
- Measurement context: ratio of CDK2/CDK7 ratios
Reported CDK2/CDK7 Selectivity: Improvement vs. REF-001 by item:
Attribute measured: CDK2/CDK7 Selectivity: Improvement vs. REF-001 (fold)

                                   compound  reported_measurement
0  CCc1cnn2c(NCc3cccc(C#N)c3)cc(NC[C@H]3CCNC[C@@H]3O)nc12 [APPAMP-003]                  1.10
1  CCc1cnn2c(NCc3cccc(C#N)c3)c(Cl)c(NC[C@H]3CCNC[C@@H]3O)nc12 [APPAMP-004]                  29.4
2  CCc1cnn2c(NCc3ccccc3F)cc(NC[C@H]3CCNC[C@@H]3O)nc12 [APPAMP-001]                  2.54
3  O[C@H]1CNCC[C@@H]1CNc1cc(NCc2ccccc2)n2ncc(C3CC3)c2n1 [APPAMP-002]                  1.20
